Assay: T. cruzi intracellular proliferation inhibitors, primary screen, cell-based, beta-gal Tulahuen parasites, NIH3T3 host, luminescence (AID 624255)
Settings: T. cruzi beta-gal in NIH3T3, GalScreen luminescence, 90 h; at 8.34 µM; active compounds read high
The whole screen tested about 77,000 compounds, of which about 4,600 (6%) were called active. Another 1% or so got no clear call; they are omitted. The sample holds actives, similar compounds and a random draw of the others, so the mix is not that of the screen.
Property measured: inhibition (%)
Please respond with the number in % and leave the unit unwritten.

input: What measured inhibition goes with "CN(C)CC(=O)Nc1ccc2c(c1)[C@@H]1C[C@H](CC(=O)NCC3CC3)O[C@@H](CO)[C@@H]1O2" ?
output: -19.8

input: Name the recorded inhibition for "N#C[C@@H]1N[C@@H](CO)[C@@H]1c1ccc(C#Cc2ccccc2F)cc1" .
output: 79.1

input: State the recorded inhibition for this entry: "C[C@@H]1CCCCO[C@@H](CN(C)C(=O)NC2CCCCC2)[C@@H](C)CN([C@@H](C)CO)C(=O)c2cc(NC(=O)C3CCCCC3)ccc2O1"
output: 69.2

input: # lookup: inhibition of "N#C[C@H]1N[C@H](CO)[C@@H]1c1ccc(C#Cc2ccccc2F)cc1"
output: 24.3

input: What value of measured inhibition is listed for "O=C(Cc1ccncc1)NCC[C@@H]1CC[C@H](NC(=O)Nc2ccc(Cl)cc2)[C@@H](CO)O1" ?
output: 37

====

Assay: T. cruzi intracellular proliferation inhibitors, primary screen, cell-based, beta-gal Tulahuen parasites, NIH3T3 host, luminescence (AID 624255)
Conditions: T. cruzi beta-gal in NIH3T3, GalScreen luminescence, 90 h; at 8.34 µM; active compounds read high
Out of some 77,000 compounds screened, about 4,600 (6%) were called active. Not shown: some 1% with an inconclusive outcome. The sample as a whole holds a higher share of actives than the screen did.
True means recorded inhibition is 70% or above; False means it is below 70%.

input: Please check the record "CC(C)NC(=O)N1CCCCN2[C@H](CO)[C@H](c3ccc(C#C[C@H](C)O)cc3)[C@H]2C1" and state if its inhibition is at or above 70%.
output: True

input: Could you please find out whether "O=C(C[C@H]1CC[C@H]2[C@@H](COC[C@H](O)CN2C(=O)c2ccncc2)O1)NCc1cc(F)cc(F)c1" has inhibition that meets 70% or exceeds it?
output: False

input: Check the entry "C[C@H](O)C#Cc1ccc([C@H]2[C@H](CO)N3CCCCN(C(=O)c4ccc(F)cc4)C[C@@H]23)cc1" : does inhibition equal or exceed 70%?
output: False

input: Is inhibition for "CCNC(=O)Nc1ccc2c(c1)C(=O)N(C)[C@@H]1CC[C@@H](CC(=O)NC3CCCCC3)O[C@H]1CO2" at or above 70%?
output: False

input: Item "C[C@@H]1CN([C@@H](C)CO)C(=O)c2cc(C#CCN(C)C)cnc2O[C@H]1CN(C)S(=O)(=O)c1cn(C)cn1" with inhibition of 70% or above?
output: False

input: Hi team, for "O=C(C[C@H]1C=C[C@H](NC(=O)NC2CCCCC2)[C@H](CO)O1)NCc1ccccc1" , is the recorded inhibition at or above 70%?
output: False

input: hey, is inhibition for this one >= 70%? "C[C@H](CO)N1C[C@H](C)[C@H](CN(C)C(=O)NC2CCCCC2)Oc2ccc(NC(=O)CCCN(C)C)cc2CC1=O"
output: False

input: Please check the record "N#C[C@@H]1[C@H](c2ccc(C#Cc3ccccc3F)cc2)[C@H](CO)N1C(=O)C1CCCCC1" and state if its inhibition is at or above 70%.
output: True

input: Reported inhibition reaches at least 70% for "CO[C@H]1CN(C)C(=O)c2cc(NC(=O)C3CC3)ccc2OC[C@@H](C)N(CCc2ccccc2)C[C@H]1C" ?
output: False

input: Form field: inhibition at least 70%? Entry: "O=S(=O)(c1ccccc1)N1CCCCN2[C@@H](CO)[C@H](c3ccc(C#Cc4cccnc4)cc3)[C@@H]2C1"
output: True

input: Textbook exercise: given the entry "CO[C@@H]1CN(C)C(=O)c2cc(NC(=O)c3ccccc3)ccc2OC[C@H](C)N(C(=O)CN(C)C)C[C@H]1C" , state whether its inhibition is greater than or equal to 70%.
output: False

input: Evaluate "COc1ccccc1C#Cc1ccc([C@@H]2[C@@H](CO)N(C(=O)C3CC3)[C@H]2C#N)cc1" : inhibition at minimum 70%?
output: True

input: Answer whether inhibition of "C[C@H](O)C#Cc1ccc([C@@H]2[C@H]3CN(S(=O)(=O)c4ccccc4)CCCCN3[C@H]2CO)cc1" is greater than or equal to 70%.
output: True

input: Could you verify whether the entry "COc1cccc(S(=O)(=O)N2C[C@@H](O)COC[C@@H]3O[C@H](CC(=O)Nc4ccccc4)CC[C@H]32)c1" shows inhibition of no less than 70%?
output: True

input: Is reported inhibition greater than or equal to 70% here: "O=C(C[C@@H]1C[C@@H]2c3cc(NC(=O)Nc4ccc(C(F)(F)F)cc4)ccc3O[C@@H]2[C@@H](CO)O1)NCCc1ccccc1"
output: True

input: Quick check: does "Cc1ccc(S(=O)(=O)N2C[C@H](O)COC[C@@H]3O[C@@H](CC(=O)NCC4CCCCC4)CC[C@H]32)cc1" have inhibition greater than or equal to 70%?
output: False

====

Test: T. cruzi intracellular proliferation inhibitors, primary screen, cell-based, beta-gal Tulahuen parasites, NIH3T3 host, luminescence (AID 624255)
Conditions: T. cruzi beta-gal in NIH3T3, GalScreen luminescence, 90 h; at 8.34 µM
About 4,600 (6%) of roughly 77,000 compounds were called active. Not shown: some 1% with an inconclusive outcome.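 The calls were made as follows: active = mean inhibition above about 93%, with at least 55% of replicates each passing it (limit read from the data, passing the limit was not always enough); inconclusive = only one of those two conditions holds; inactive = neither condition holds.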 This excerpt belongs to a sample that is enriched for actives.
Give your call using only these classes: Y (active), N (inactive)

input: In this assay, the call recorded for "Cc1ccc(-c2ccc([C@H]3[C@H](CO)N4CCCCN(Cc5cncnc5)C[C@@H]34)cc2)cc1" was what?
output: Y

input: Hey, what did the test say about "CN(C)C(=O)[C@@H]1[C@@H](CO)[C@@H]2Cn3c(ccc(-c4ccccc4F)c3=O)[C@@H]2N1C(=O)C1CC1" ?
output: N

input: Which outcome did this test record for the compound "O=C(C[C@@H]1CC[C@H]2[C@@H](COC[C@@H](O)CN2C(=O)c2ccc3c(c2)OCO3)O1)NC1Cc2ccccc2C1" ?
output: N

input: Query: recorded result category for "CCC(=O)N(C)C[C@H]1Oc2cc(C#CC3CC3)ccc2S(=O)(=O)N([C@@H](C)CO)C[C@@H]1C" in this test
output: N

input: What did this assay record as the result for "OC[C@@H]1[C@@H](c2ccc(-c3ccccc3F)cc2)[C@@H]2CN(Cc3cncnc3)CCCCN12" ?
output: N

input: Record lookup: outcome of this test for "C[C@@H]1CN([C@H](C)CO)S(=O)(=O)c2ccc(C#CC3CCCC3)cc2O[C@@H]1CN(C)C(=O)Cc1ccncc1" ?
output: Y

input: I'd appreciate the recorded outcome for "CO[C@@H]1CN(C)C(=O)c2ccc(NC(=O)Nc3cc(Cl)cc(Cl)c3)cc2OC[C@H](C)NC[C@H]1C" from this test.
output: N

input: Could you kindly confirm the outcome this assay logged for "C[C@H]1CCCCO[C@H](CN(C)CC2CCCCC2)[C@@H](C)CN([C@@H](C)CO)C(=O)c2cc(NS(=O)(=O)c3ccc(Cl)cc3)ccc2O1" ?
output: N

input: Would you mind telling me which call this test gave "CN1c2ccc(C#Cc3cccnc3)cc2[C@@H]2[C@@H](CCN2S(=O)(=O)c2ccccc2)[C@H]1CO" ?
output: N

input: Which outcome did this test record for the compound "CN(C)C(=O)c1ccc(-c2ccc([C@@H]3[C@@H](CO)N4CCCCN(Cc5cncnc5)C[C@@H]34)cc2)cc1" ?
output: N

input: Give the logged outcome of this assay for the following compound: "COC(=O)C[C@@H]1CC[C@H]2[C@H](COc3ccc(NC(=O)c4cccs4)cc3C(=O)N2C)O1"
output: N

input: Which outcome was assigned to "COc1cccc(CNC(=O)c2cc3c(c(-c4cccc(-c5ccc(C#N)cc5)c4)n2)[C@@H](CCO)N([S@](=O)C(C)(C)C)C3)c1" in this test?
output: N

input: Entry "COc1ccc(NC(=O)N[C@H]2C=C[C@H](CC(=O)NCc3ccccn3)O[C@H]2CO)cc1" : call = ?
output: N

input: State the result this test recorded for "O=C(C[C@@H]1CC[C@@H]2[C@H](COC[C@@H](O)CN2Cc2ccccc2)O1)NCCc1ccccc1" .
output: N

input: Hi team, can someone confirm the assay call for "CN1C(=O)c2cc(NC(=O)c3ccccc3)ccc2OC[C@@H]2O[C@H](CC(=O)NCC3CC3)CC[C@@H]21" ?
output: N

input: Called result for "Cc1cccc(-c2ccc([C@@H]3[C@H](CO)N4CCCCN(Cc5ccncc5)C[C@@H]34)cc2)c1"
output: N
